Entry source: ChEMBL document CHEMBL4219147

Species: Rattus norvegicus
Experiment: Activation of AMPK in Sprague-Dawley rat primary hepatocytes assessed as inhibition of gluconeogenesis by measuring glucose production at 10 uM after 6 hrs by colorimetric assay (reference value: 100 +/- 3.5%)
Parameters: scale not given: the % may be the effect or the level left
Parameter threshold = 50%. Response is Met when Activity meets or exceeds it, else Not met.

1. CCCCc1cc2c(s1)CC1c3cc4c(cc3CCN1C2)OCO4 (centres undefined) | Met
2. COc1ccc(OC)c2c1CC1c3cc(Cc4ccc(C)cc4)sc3CCN1C2 (centres undefined) | Met
3. COc1ccc(OC)c2c1CC1c3cc(Cc4cccc(C)c4)sc3CCN1C2 (centres undefined) | Met
4. c1ccc(Cc2cc3c(s2)CC2c4cc5c(cc4CCN2C3)OCO5)cc1 (centres undefined) | Not met
5. COc1ccc(OC)c2c1CC1c3cc(Cc4ccc(N5CCCCC5)cc4)sc3CCN1C2 (centres undefined) | Not met
6. COc1ccc(OC)c2c1CC1c3cc(Cc4ccc(F)cc4)sc3CCN1C2 (centres undefined) | Met
7. COc1ccc(OC)c2c1CC1c3cc(C(C)c4ccccc4)sc3CCN1C2 (centres undefined) | Not met
8. COc1cccc(Cc2cc3c(s2)CCN2Cc4c(OC)ccc(OC)c4CC32)c1 (centres undefined) | Met

====

Recorded viability at 12 h, 5 µM, one value per entry.
Test: Cytotoxicity against Sprague-Dawley rat L6 cells assessed as cell viability at 5 uM after 12 hrs by SRB assay (reference value: 100 +/- 1.8%)
Type: cell-based
Conditions: read-out: Activity
value kind: viability at 12 h, 5 µM (%)

1. COc1ccc(OC)c2c1CC1c3cc(Cc4ccc(NC(C)=O)cc4)sc3CCN1C2 (stereo not drawn) | 96.2
2. COc1ccc(OC)c2c1CC1c3cc(Cc4cccc(C)c4)sc3CCN1C2 (stereo not drawn) | 99.6
3. c1cc2c(s1)CC1c3cc4c(cc3CCN1C2)OCO4 (stereo not drawn) | 98.6
4. COc1ccc(OC)c2c1CC1c3cc(Cc4ccc(C(F)(F)F)cc4)sc3CCN1C2 (stereo not drawn) | 102
5. COc1ccc(OC)c2c1CC1c3cc(Cc4ccc(C)cc4)sc3CCN1C2 (stereo not drawn) | 100
6. COc1ccc(OC)c2c1CC1c3cc(Cc4ccc(N(C)C)cc4)sc3CCN1C2 (stereo not drawn) | 110
7. COc1ccc(OC)c2c1CC1c3cc(Cc4ccc(N5CCOCC5)cc4)sc3CCN1C2 (stereo not drawn) | 97.7
8. C=CCOc1ccc(Cc2cc3c(s2)CCN2Cc4c(OC)ccc(OC)c4CC32)cc1 (stereo not drawn) | 99.4
9. COc1ccc(OC)c2c1CC1c3cc(Cc4ccccn4)sc3CCN1C2 (stereo not drawn) | 104
10. COc1ccc(OC)c2c1CC1c3cc(Cc4ccc(N5CCN(C)CC5)cc4)sc3CCN1C2 (stereo not drawn) | 106
11. CCCCc1cc2c(s1)CC1c3cc4c(cc3CCN1C2)OCO4 (stereo not drawn) | 102
12. COc1ccc(OC)c2c1CC1c3cc(Cc4nccs4)sc3CCN1C2 (stereo not drawn) | 104
13. COc1cccc(Cc2cc3c(s2)CCN2Cc4c(OC)ccc(OC)c4CC32)c1 (stereo not drawn) | 100
14. COc1ccc(OC)c2c1CC1c3cc(Cc4ccc(F)cc4)sc3CCN1C2 (stereo not drawn) | 98.8
15. c1ccc(Cc2cc3c(s2)CC2c4cc5c(cc4CCN2C3)OCO5)cc1 (stereo not drawn) | 102
16. COc1ccc(OC)c2c1CC1c3cc(C(C)c4ccccc4)sc3CCN1C2 (stereo not drawn) | 101
17. COc1ccc(OC)c2c1CC1c3cc(Cc4ccncc4)sc3CCN1C2 (stereo not drawn) | 105
18. COc1ccc(OC)c2c1CC1c3cc(Cc4ccc5c(c4)CCO5)sc3CCN1C2 (stereo not drawn) | 101
19. CCc1cc2c(s1)CC1c3cc4c(cc3CCN1C2)OCO4 (stereo not drawn) | 99.5
20. COc1ccc(OC)c2c1CC1c3cc(Cc4ccc(S(C)(=O)=O)cc4)sc3CCN1C2 (stereo not drawn) | 101
21. COc1ccc(OC)c2c1CC1c3cc(Cc4ccc(N5CCCCC5)cc4)sc3CCN1C2 (stereo not drawn) | 103
22. COc1ccc(OC)c2c1CC1c3cc(Cc4ccc(Br)cc4)sc3CCN1C2 (stereo not drawn) | 101
23. COc1ccc(OC)c2c1CC1c3cc(Cc4cc(OC)c(OC)c(OC)c4)sc3CCN1C2 (stereo not drawn) | 95.3
